Every entry's value here was drawn from patent US10980238B2.

Tested on: bees
condition parameters: Li-salt 25 mM in sucrose syrup for 7 days; 50 bees per cage; mean of three replicates
reported metric: Number of dead bees, Day 1
The answer should be a number; do not append a unit.

Worked cases, Number of dead bees, Day 1 given:
[[record]]
compound = "O=C([O-])[O-].[Li+].[Li+] [Li-carbonate, lithium carbonate]"
test_system = "bees"
measured_value = 0.7

[[record]]
compound = "CC(O)C(=O)[O-].[Li+] (stereo not shown) [Li-lactate, lithium lactate]"
test_system = "bees"
measured_value = 0.3

[[record]]
compound = "O=C([O-])CC(O)(CC(=O)[O-])C(=O)[O-].[Li+].[Li+].[Li+] [Li-citrate, lithium citrate]"
test_system = "bees"
measured_value = 0.0


We now examine a further compound.
Any idea what Number of dead bees, Day 1 came out for O=S(=O)([O-])[O-].[Li+].[Li+] [Li-sulfate, lithium sulfate] on bees?
0.0

###

Tested on: Varroa destructor
condition parameters: Li-salt 25 mM in sucrose syrup for 7 days; 25 mites per cage; mean of three replicates
reported metric: Number of dead mites, Day 3
Quick one: just the number, no unit, thanks!

Here are 3 molecules together with their reported answers.
[[record]]
molecule = "O=C([O-])[O-].[Li+].[Li+] [Li-carbonate, lithium carbonate]"
reported_metric = "Number of dead mites, Day 3"
measured_value = 20.0

[[record]]
molecule = "O=C([O-])CC(O)(CC(=O)[O-])C(=O)[O-].[Li+].[Li+].[Li+] [Li-citrate, lithium citrate]"
reported_metric = "Number of dead mites, Day 3"
measured_value = 14.7

[[record]]
molecule = "CC(O)C(=O)[O-].[Li+] (stereo not shown) [Li-lactate, lithium lactate]"
reported_metric = "Number of dead mites, Day 3"
measured_value = 6.3


Okay, next one:
Any idea what its Number of dead mites, Day 3 is? The molecule is O=S(=O)([O-])[O-].[Li+].[Li+] [Li-sulfate, lithium sulfate]
5.7

###

Tested on: Varroa destructor
condition parameters: Li-salt 25 mM in sucrose syrup for 7 days; 25 mites per cage; mean of three replicates
reported metric: Number of dead mites, Day 6
Answer using only a numeral; do not append any unit.

The cases that follow already have their Number of dead mites, Day 6 on record.
[[record]]
molecule = "O=C([O-])CC(O)(CC(=O)[O-])C(=O)[O-].[Li+].[Li+].[Li+] [Li-citrate, lithium citrate]"
reported_metric = "Number of dead mites, Day 6"
measured_value = 0.0

[[record]]
molecule = "O=S(=O)([O-])[O-].[Li+].[Li+] [Li-sulfate, lithium sulfate]"
reported_metric = "Number of dead mites, Day 6"
measured_value = 0.0

[[record]]
molecule = "CC(O)C(=O)[O-].[Li+] (stereo not shown) [Li-lactate, lithium lactate]"
reported_metric = "Number of dead mites, Day 6"
measured_value = 0.0


Consider the additional molecule presented here.
Fill in the blank: the reported Number of dead mites, Day 6 of O=C([O-])[O-].[Li+].[Li+] [Li-carbonate, lithium carbonate] is ____.
0.0

###

Test system: bees
condition parameters: Li-salt 25 mM in sucrose syrup for 7 days; 50 bees per cage; mean of three replicates
Text: The bees were fed with Li-salt/sucrose solutions for 7 days. Survival rate of bees and mites were monitored daily and dead bees or mites were removed.
reported metric: Number of dead bees, Day 6
Please give the numeric answer without any surrounding text.

[[record]]
compound = "O=S(=O)([O-])[O-].[Li+].[Li+] [Li-sulfate, lithium sulfate]"
measured_value = 1.7

[[record]]
compound = "O=C([O-])CC(O)(CC(=O)[O-])C(=O)[O-].[Li+].[Li+].[Li+] [Li-citrate, lithium citrate]"
measured_value = 1.7

[[record]]
compound = "CC(O)C(=O)[O-].[Li+] (stereo not shown) [Li-lactate, lithium lactate]"
measured_value = 0.3


With those in mind, consider the next compound.
What Number of dead bees, Day 6 value was documented for this compound, O=C([O-])[O-].[Li+].[Li+] [Li-carbonate, lithium carbonate] ?
0.3
